- test_system: TRα (Homo sapiens)
- Sequence (P10827 128-410 isoform P10827-2 limits assumed): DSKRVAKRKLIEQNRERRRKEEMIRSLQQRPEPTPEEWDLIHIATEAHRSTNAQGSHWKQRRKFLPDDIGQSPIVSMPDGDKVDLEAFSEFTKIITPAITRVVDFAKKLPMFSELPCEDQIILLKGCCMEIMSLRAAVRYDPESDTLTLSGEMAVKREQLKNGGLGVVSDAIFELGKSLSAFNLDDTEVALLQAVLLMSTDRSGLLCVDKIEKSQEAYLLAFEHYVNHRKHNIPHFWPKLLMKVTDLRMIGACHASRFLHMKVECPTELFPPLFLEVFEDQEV
- experiment_description: Thyroid-hormone reporter-gene assay, TRα (Gal4 hybrid, luciferase)
- study_conditions: HEK293-derived reporter cells, 24 hr treatment, luciferase readout
In this section, each of the compounds is paired with its reported EC50.

[
  {
    "compound": "CC(C)c1cc(Cc2ccc(OCC(=O)O)c3ccccc23)ccc1O [Compound 14]",
    "EC50": "> 1000 nM"
  },
  {
    "compound": "CC(C)c1c(O)ccc(Cc2ccc(OCC(=O)O)c3c2CCC3)c1F [Compound 2]",
    "EC50": "> 1000 nM"
  },
  {
    "compound": "Cc1cc(OCC(=O)O)c2c(c1Cc1ccc(O)c(C(C)C)c1)CCC2 [Compound 6]",
    "EC50": "100 to 1000 nM"
  },
  {
    "compound": "CC(C)c1cc(Cc2cc(F)c(OCC(=O)O)cc2C(C)C)ccc1O [Compound 36]",
    "EC50": "100 to 1000 nM"
  },
  {
    "compound": "CC(C)c1c(O)ccc(Cc2cc(F)c(OCC(=O)O)cc2Cl)c1F [Compound 29]",
    "EC50": "> 1000 nM"
  },
  {
    "compound": "CC(C)c1c(O)ccc(Cc2ccc(OCC(=O)O)c(F)c2C(C)C)c1F [Compound 31]",
    "EC50": "> 1000 nM"
  },
  {
    "compound": "CC(C)c1cc(Cc2cc(F)c(OCC(=O)O)cc2C(F)(F)F)ccc1O [Compound 18]",
    "EC50": "> 1000 nM"
  },
  {
    "compound": "CC(C)c1c(O)ccc(Cc2ccc(OCC(=O)O)cc2Cl)c1F [Compound 20]",
    "EC50": "> 1000 nM"
  },
  {
    "compound": "CC(C)c1cc(OCC(=O)O)ccc1Cc1ccc(O)c(C(C)C)c1F [Compound 25]",
    "EC50": "100 to 1000 nM"
  },
  {
    "compound": "Cc1cc(OCC(=O)O)c2c(c1Cc1ccc(O)c(C(C)c3ccc(F)cc3)c1)CCC2 (stereo not drawn) [Compound 8]",
    "EC50": "10 to 100 nM"
  },
  {
    "compound": "CC(C)c1c(O)ccc(Cc2ccc(OCC(=O)O)c3c2C(C)CC3)c1F (stereo not drawn) [Compound 4]",
    "EC50": "> 1000 nM"
  },
  {
    "compound": "Cc1cc(OCC(=O)O)c2c(c1Cc1ccc(O)c(C(C)C)c1F)CCC2 [Compound 10]",
    "EC50": "10 to 100 nM"
  },
  {
    "compound": "C=C(C)c1cc(OCC(=O)O)ccc1Cc1ccc(O)c(C(C)C)c1F [Compound 23]",
    "EC50": "> 1000 nM"
  },
  {
    "compound": "CC(C)c1c(O)ccc(Cc2ccc(OCC(=O)O)c(F)c2Cl)c1F [Compound 27]",
    "EC50": "> 1000 nM"
  },
  {
    "compound": "CC(C)c1cc(Cc2cc(F)c(OCC(=O)O)c3c2CCC3)ccc1O [Compound 16]",
    "EC50": "> 1000 nM"
  }
]
